system: MFM-223; assay: normalised viability (% of control), CellTiter-Blue; higher = more viable cells (about 100 = DMSO control); details: 1000 nM; incubation time: 72 h
Below, each of the compounds is paired with its reported normalised viability value.
// units = %; emit number, no label

Worked cases, normalised viability given:
                                   compound  target_system  observed_result
0  CCC1(c2ccc(N)cc2)CCC(=O)NC1=O (stereo unspecified) [Aminoglutethimide]        MFM-223              102
1  NC(=O)Nc1cc(-c2cccc(F)c2)sc1C(=O)N[C@H]1CCCNC1 [AZD 7762]        MFM-223             51.7
2  Cn1c(CCCC(=O)O)nc2cc(N(CCCl)CCCl)ccc21 [Bendamustine]        MFM-223             87.4

Problem: What value of measured normalised viability is listed for C[C@@H](Oc1cc(-c2cnn(C3CCNCC3)c2)cnc1N)c1c(Cl)ccc(F)c1Cl [Crizotinib] ?
Solution: 73

Problem: Which normalised viability value belongs to CN(N=O)C(=O)N[C@@H](C=O)[C@@H](O)[C@H](O)[C@H](O)CO [Streptozocin] ?
Solution: 93

Problem: Quick one: normalised viability of Oc1nc(-c2ccc(C(F)(F)F)cc2)nc2c1CSCC2 [XAV-939] ?
Solution: 100

###

system: BT-549; conditions: 72 h
Mark Met only for EC50, CellTiter-Glo values smaller than 2000 nM; exact matches and larger values are Not met.

Example entries and their recorded answers appear below.
molecule	target.system	class.label
Cn1c(Nc2ccc(C(F)(F)F)cc2)nc2cc(Oc3ccnc(-c4ncc(C(F)(F)F)[nH]4)c3)ccc21	BT-549	Met
N#CCNC(=O)c1ccc(-c2ccnc(Nc3ccc(N4CCOCC4)cc3)n2)cc1	BT-549	Not met
COc1cc([C@@H]2c3cc4c(cc3[C@@H](O[C@@H]3O[C@@H]5CO[C@@H](C)O[C@H]5[C@H](O)[C@H]3O)[C@H]3COC(=O)[C@H]23)OCO4)cc(OC)c1O [Etoposide]	BT-549	Not met
CCC1=C[C@@H]2CN(C1)Cc1c([nH]c3ccccc13)[C@@](C(=O)OC)(c1cc3c(cc1OC)N(C)[C@H]1[C@@](O)(C(=O)OC)[C@H](OC(C)=O)[C@]4(CC)C=CCN5CC[C@]31[C@@H]54)C2	BT-549	Met

Problem: Confirm or reject: EC50, CellTiter-Glo of CCC(C)(C)C(=O)O[C@H]1C[C@@H](C)C=C2C=C[C@H](C)[C@H](CC[C@@H]3C[C@@H](O)CC(=O)O3)[C@H]21 lies strictly below 2000 nM
Solution: Not met

Problem: Is 2000 nM strictly greater than the molecule's reported EC50, CellTiter-Glo? molecule: CN[C@@H]1C[C@H]2O[C@@](C)([C@@H]1OC)n1c3ccccc3c3c4c(c5c6ccccc6n2c5c31)C(=O)N[C@H]4O
Solution: Met

Problem: In plain terms, does NC(=O)Nc1cc(-c2cccc(F)c2)sc1C(=O)N[C@H]1CCCNC1 come in under 2000 nM for EC50, CellTiter-Glo?
Solution: Met

###

Reported drug sensitivity score is given for each of the following molecules.
system: HCC1937; test: drug sensitivity score (DSS), CellTiter-Blue viability (DSS (AUC-based score)); higher = stronger viability inhibition; extreme values may be limits of the assay; conditions: incubation time: 72 h
Lab note: jot the number down without any unit.

                                   molecule  observed_result
0  CNCc1ccc(-c2[nH]c3cc(F)cc4c3c2CCNC4=O)cc1 [Rucaparib]             6.08
1  Clc1ccc(Nc2nnc(Cc3ccncc3)c3ccccc23)cc1 [Vatalanib]                0
2  O=P1(NCCCl)OCCCN1CCCl (centres undefined) [Ifosfamide]                0

Proceeding to the next molecule to report its drug sensitivity score.
Problem: What value of measured drug sensitivity score is listed for Oc1nc(-c2ccc(C(F)(F)F)cc2)nc2c1CSCC2 [XAV-939] ?
Solution: 0

###

test system: BT-474; experiment: normalised viability (% of control), CellTiter-Blue; higher = more viable cells (about 100 = DMSO control); settings: 10 nM; incubation time: 72 h
parameter: normalised viability (%)
Supply the numeric figure in %, leaving out any unit text.

Problem: // lookup normalised viability for Clc1ccc(Nc2nnc(Cc3ccncc3)c3ccccc23)cc1
Solution: 95.8

Problem: Fill in the blank: the reported normalised viability of CN(C)/N=N/c1[nH]cnc1C(N)=O is ____.
Solution: 126

Problem: Any idea what normalised viability was measured for CCC1(c2ccc(N)cc2)CCC(=O)NC1=O (stereo unspecified) [Aminoglutethimide] ?
Solution: 107

Problem: Given the entry N.N.[Cl][Pt][Cl] [Cisplatin] , report its measured normalised viability.
Solution: 115

Problem: Requested field: normalised viability. Item: C=C(c1ccc(C(=O)O)cc1)c1cc2c(cc1C)C(C)(C)CCC2(C)C
Solution: 103

Problem: For the compound Cn1c(CCCC(=O)O)nc2cc(N(CCCl)CCCl)ccc21 , what normalised viability is on record?
Solution: 127

###

system: MCF-10A; test: drug sensitivity score (DSS), CellTiter-Glo (DSS (AUC-based score)); higher = stronger drug effect (viability inhibition or cytotoxicity); extreme values may be limits of the assay; details: incubation time: 72 h
Known drug sensitivity score of a selection of molecules
// return just the number, without any unit appended

Below, 8 molecules whose answers are already recorded.
molecule	drug sensitivity score
CCC1(c2ccc(N)cc2)CCC(=O)NC1=O (centres undefined) [Aminoglutethimide]	0
CCCCCCCCCCCCCCCCCCOP(=O)([O-])OC1CC[N+](C)(C)CC1 [Perifosine]	0.579
CC(=O)Nc1ccc(C(=O)Nc2ccccc2N)cc1 [Tacedinaline]	0
Cn1c(CCCC(=O)O)nc2cc(N(CCCl)CCCl)ccc21 [Bendamustine]	0
O=P1(NCCCl)OCCCN1CCCl (centres undefined) [Ifosfamide]	0
COc1cc([C@@H]2c3cc4c(cc3[C@@H](O[C@@H]3O[C@@H]5CO[C@@H](C)O[C@H]5[C@H](O)[C@H]3O)[C@H]3COC(=O)[C@H]23)OCO4)cc(OC)c1O [Etoposide]	0
CN[C@@H]1C[C@H]2O[C@@](C)([C@@H]1OC)n1c3ccccc3c3c4c(c5c6ccccc6n2c5c31)C(=O)N[C@H]4O [UCN-01]	27.8
N#CCNC(=O)c1ccc(-c2ccnc(Nc3ccc(N4CCOCC4)cc3)n2)cc1 [Momelotinib]	5.18

Switching to the query record.
Problem: # input molecule: C[C@@H](Oc1cc(-c2cnn(C3CCNCC3)c2)cnc1N)c1c(Cl)ccc(F)c1Cl [Crizotinib] ; wanted: its drug sensitivity score
Solution: 0

###

Each record here notes measured normalised response.
test system: HDQ-P1; experiment: normalised response (% of control), CellTiter-Glo; higher = more viable cells (100 = DMSO, 0 = benzethonium chloride kill control); settings: incubation time: 72 h

Problem: Hi! What's the reported normalised response for CN(C)/N=N/c1[nH]cnc1C(N)=O [Dacarbazine] (10000 nM) on HDQ-P1?
Solution: 93.4%

###

system: Hs578T; experiment: normalised response (% of control), CellTiter-Glo; higher = more viable cells (100 = DMSO, 0 = benzethonium chloride kill control); details: incubation time: 72 h
Quick list: normalised response per entry.
Just the number please, in %, no unit attached.

In [3]: df
Out[3]:
                                   molecule  observed_result
0     N.N.[Cl][Pt][Cl] [Cisplatin] (100 nM)              102
1  O=P1(NCCCl)OCCCN1CCCl (stereo not drawn) [Ifosfamide] (1 nM)             98.8

Problem: Item N.N.[Cl][Pt][Cl] [Cisplatin] (1 nM) has what recorded normalised response?
Solution: 101

###

test system: DU-4475; assay: normalised viability (% of control), CellTiter-Blue; higher = more viable cells (about 100 = DMSO control); settings: incubation time: 72 h
Could you please mark Met for values of normalised viability below 80% and Not met for values at or above it?

compound	target.system	class.label
CN(C)/N=N/c1[nH]cnc1C(N)=O [Dacarbazine] (3000 nM)	DU-4475	Not met

Problem: Field: below-cutoff. Rule: recorded normalised viability strictly less than 80%. Subject: Cc1ccc(C(=O)N(CCCN)[C@@H](c2oc3cc(Cl)ccc3c(=O)c2Cc2ccccc2)C(C)C)cc1 (300 nM)
Solution: Met

Problem: Strictly below 80% in normalised viability? CN(N=O)C(=O)N[C@@H](C=O)[C@@H](O)[C@H](O)[C@H](O)CO [Streptozocin] (3000 nM)
Solution: Not met

Problem: Please check: normalised viability for CC(C)Cn1cnc2c(N)nc3ccccc3c21 [Imiquimod] (3000 nM) , strictly under 80% or not?
Solution: Not met

Problem: Just wondering, is normalised viability of N.N.[Cl][Pt][Cl] [Cisplatin] (3000 nM) below 80%?
Solution: Not met

Problem: In plain terms, does C=C(c1ccc(C(=O)O)cc1)c1cc2c(cc1C)C(C)(C)CCC2(C)C [Bexarotene] (3000 nM) come in under 80% for normalised viability?
Solution: Not met

Source: the supplement of paper PMC4862054
